# Tested on: MS2 coat protein
# Protocol summary: apparent KD of MS2 coat protein; designed switch direction (-1 OFF switch, 1 ON switch): -1; higher = weaker reporter binding
# Assay conditions: input ligand: none
Result type: apparent KD of MS2 coat protein (nM)
Write the value in nM as a bare number.

The examples below pair each entry with its known result.
GGUCGCAGGACAGGAUAUCCAAGCGAUCUAACAUGAGGAUCACCCAUGUGCUAAGGCAGAGGGACGGAGAAGGGUCGAUCGGCC [Inqusodire] (Eterna round: R96, puzzle: Exclusion NG 2): 58.3
GGUACUCAAAGAGUACCAAUACGAACAUGAGGAUCACCCAUGUAGGAUAUGCUACUCAAAGAGUAGCAGAAGGAUAUGAUCGAU [Far Half Aptamer v14] (Eterna round: R96, puzzle: Exclusion NG 3): 40.6

In the following, a different sequence is considered.
Entry under review: AAGAUGUGAGGAUAUCACGAGAACGUCACACGGACGCUCUCUGAGAAGGCACAUGAGGAUCACCCAUGUCCAAC [EX4 A.21] (Eterna round: R97, puzzle: Exclusion 4) . Reported apparent KD of MS2 coat protein?
47.2

---

# Test system: MS2 coat protein
# Protocol summary: apparent KD of MS2 coat protein; designed switch direction (-1 OFF switch, 1 ON switch): -1; higher = weaker reporter binding
# Assay conditions: Eterna round: R95; input ligand: FMN 200 uM
The following sequences are listed with their measured apparent KD of MS2 coat protein values.
Write the value in nM as a bare number.

The examples below pair each entry with its known result.
AGUAACUAUCACGAAAGUGAUAGUUACAAAACAAGUGGAACAUGAGGAUCACCCAUGUCCUCAUUUGCUCGUCUUAU [Sensor 3 - 4] (puzzle: Sensor v3, turn-off variant 2): 107
UUUAAUUUUUUUUUUUUACAAGCUUUUUGCUCGUCUUAUACAUGAGGAUCACCCAUGUAGGUGGAGGGUAAAUUAUC [JMF 90] (puzzle: Sensor v3, turn-off variant 2): 15.6

Entry under review: GUGUAACUACACGGGCUCAACAUGAGGAUCACCCAUGUCAUACACGCAAGCUUUUUGCUUGUCUUAUCUGUCCGUGU [Cegeesre] (puzzle: Sensor v3, turn-off variant 1) . Reported apparent KD of MS2 coat protein?
12.4

Request: AAAUAAUAGAUAAAAUAAAACAUGAGGAUCACCCAUGUGGGAUGUUGAGGGUGAAACAAGCUUUUUGCUCGUCUUAU (puzzle: Sensor v3, turn-off variant 1)
105

Request: CUCCUCAUGGCGCCUAAACACAUGAGGAUCACCCAUGUACAGGCUUUUUGCCGUCUUAUAAUAAAACCGAGGAGGCG [Atrelele] (puzzle: Sensor v3, turn-off variant 1)
21

---

# Tested on: MS2 coat protein
# Protocol summary: apparent KD of MS2 coat protein; designed switch direction (-1 OFF switch, 1 ON switch): -1; higher = weaker reporter binding
# Assay conditions: input ligand: FMN 200 uM
The following sequences are listed with their measured apparent KD of MS2 coat protein values.
Write the value in nM as a bare number.

The examples below pair each entry with its known result.
GACAUCGCAGGAUAUUAGAGUUUUUACAUGAGGAUCACCCAUGUUAAUUGGGUUAAUGUCUAAGAAGGGCGAUGUC [JR_EX5_Sub015] (Eterna round: R97, puzzle: Exclusion 5): 113
GUCUUCAUGACAUGAGGAUCACCCAUGUGUUAUUUGUUAACUAAGGAUAUAUUUUUAAUGUUGAGAUAGAAGGUAGUUUCGGUC [JR_ExcNG3_Sub090] (Eterna round: R96, puzzle: Exclusion NG 3): 161
GUCACAUGGGUGUAGAAUCACAUGAGGAUCACCCAUGUGACUAACAAGCUUUUUGCUCGUCUUAUGUCUAUGUGAAG [Stov1/17-A3] (Eterna round: R97, puzzle: Sensor, turn-off variant 1): 58.7
CUUCACCCACCAGAGCUCACCCACAUACCAGCUCUGGUGACAUGAGGAUCACCCAUGUUUUUUGCCCGUCUUAUCUU [Intibima] (Eterna round: R96, puzzle: Sensor v3, turn-off variant 2): 65
AACCCUGAUGACAAAUUACAUGAGGAUCACCCAUGUGCCUCACAGGAUAUCCCAGCACGUCGCUAGGAGAAGGGUGACGCGCCA [Tienen] (Eterna round: R96, puzzle: Exclusion NG 3): 37.5

Entry under review: GGGAGGGAUGCAGGAUAUGCGAGGGAGGGAGGAGUAGAAGGGCAUGAGGAUCACCCAUGUGACAUGAGGAUCACCCAUGUGGGA [Success - 29% A] (Eterna round: R96, puzzle: Exclusion NG 1) . Reported apparent KD of MS2 coat protein?
78

Request: UUGUUCAGAGGAUAUACAUGAGGAUCACCCAUGUGUUUCAGCUAGGAGACUAGCGAAAGUAGAAGGCUGUACUC [salish99_ex3_r4_016] (Eterna round: R97, puzzle: Exclusion 3)
30.5

Request: UACAUGAGGAUCACCCAUGUUUUGUCGUGUAUGGUAUUUAUCUAGGAUAUCACGUUAUUUAUUUAUGAGAAGGAGAAUAUUAAU [JMF's solution 26] (Eterna round: R96, puzzle: Exclusion NG 3)
38.9

Request: AAGAAGAUCGGAGGAUAUGGAGCUGAAACGGCGCUAGAAGGCCGUCUAGUGUAACAUGAGGAUCACCCAUGUAGGGACCUCUAA [EX ng 1 4.2] (Eterna round: R96, puzzle: Exclusion NG 1)
944

---

The following sequences are listed with their measured apparent KD of MS2 coat protein values.
# System: MS2 coat protein
# Protocol summary: apparent KD of MS2 coat protein; designed switch direction (-1 OFF switch, 1 ON switch): -1; higher = weaker reporter binding
# Assay conditions: Eterna round: R95; input ligand: none

The examples below pair each entry with its known result.
AGUAUCUAUCAUGAGAGUGGUAGGUACAACAGGUGGGAAACAUGAGGAUCACCCAUGUCCUCAUUUGCUCGUCUUAU [Grok-var2-01] (puzzle: Sensor v3, turn-off variant 2): 764 nM
AAAACACAUGAGGAUCACCCAUGUGAGGAUAUGUUGAUUUUGAUCAAAGUUAAGAUUAACAGAAGGCACAUAAA [JR_Exclusion1_Sub018] (puzzle: Exclusion 1): 35.2 nM
UUUAAUUUUUUUUUUUUACAAGCUUUUUGCUCGUCUUAUACAUGAGGAUCACCCAUGUGGGUGGAGGAUAAAUUAUC [JMF 35] (puzzle: Sensor v3, turn-off variant 2): 93.9 nM
AGUUGCGCAGGAUAUACAUGAGGAUCACCCAUGUGAGAGAAAUAAGUGAGGAAGAAAAGUAGAAGGGCGUGACA [Mat - Exclusion 3 - Mod of Salish D74] (puzzle: Exclusion 3): 47.1 nM
GAAGAGACAGGAUAUACAUGAGGAUCACCCAUGUGAGGAGGUUGGAGGCGGAGGAGGUGUAGAAGGGUCAAAGA [JR_Exclu3_Sub021] (puzzle: Exclusion 3): 38.8 nM
CUGGUCCGAGGAUAUAUUAAGUGAAACAUGAGGAUCACCCAUGUUAUUUGAUGGAAGAAAAUAGAAGGCGGACUAG [Mat - Exclusion 5 - JL mod - D59] (puzzle: Exclusion 5): 62.5 nM
GAAGAGACAGGAUAUACAUGAGGAUCACCCAUGUGAGUAUGUUAGAGGCGGAGGAGAUGUAGAAGGGUCAAAGA [JR_Exclu3_Sub017] (puzzle: Exclusion 3): 31.6 nM
UCAUGUUUAGAGGAUAUGAUUACUCUAGAGUGAUCAGAAGGCUAGACAUGAGGAUCACCCAUGUCAGAACAUGG [Exclusion 6 - B - 17:c] (puzzle: Exclusion 6): 29.1 nM
AGGAAGCAAGGAUAUACGAGGAGAAGGUGGAGAUUUAAAGGACAUGAGGAUCACCCAUGUAGAAGGUGCGAGAA [JR_Exclu2_Sub046] (puzzle: Exclusion 2): 50.4 nM

Entry under review: AGUACUGGCGCGUCGGUGUUGGUACAAUAAGCUUGUGAAACAUGAGGAUCACCCAUGUCCUCAUAAGCUCGUCUUAU [salish99_TOv2_r2_083] (puzzle: Sensor v3, turn-off variant 2) . Reported apparent KD of MS2 coat protein?
16.5 nM

---

The following sequences are listed with their measured apparent KD of MS2 coat protein values.
# System: MS2 coat protein
# Protocol summary: apparent KD of MS2 coat protein; designed switch direction (-1 OFF switch, 1 ON switch): -1; higher = weaker reporter binding
# Assay conditions: input ligand: none
Write the value in nM as a bare number.

CCACCGCCGUCAGGAUAUAACAUGAGGAUCACCCAUGUGUGAAGCAUGAGAGACUCUAACAAGUGUUAGAAGGGACUUAUUGCG [Eternabot solution 36] (Eterna round: R96, puzzle: Exclusion NG 2): 75.8
CUGUACUGAGGAUAUACAUGAGGAUCACCCAUGUGCUUCAGCUAGGAAACUAGCAAAGGUAGAAGGCAGUACAG [Mat - Exclusion 3 - Eli Mod - D58] (Eterna round: R97, puzzle: Exclusion 3): 14.5
ACAUGAGGAUCACCCAUGUGACCACAAUGGCUGAUGUAACGACAGGAUAUGCGUGAAUAUCUAACGCAGAAGGGUCAUGACUGG [Deportation 61 - Jieux - Exclusion NG 3] (Eterna round: R96, puzzle: Exclusion NG 3): 48.2

In the following, a different sequence is considered.
Entry under review: GAAAACGGAGAGGAUAUUUGAGAUCAAAGCUCCAAAGAAGGCUCCACAUGAGGAUCACCCAUGUGGUCUUCAAG [Mat - Exclusion 6 - JL Mod - D14] (Eterna round: R97, puzzle: Exclusion 6) . Reported apparent KD of MS2 coat protein?
17

Cited source for all entries: the supplement of paper PMC9170038
